- testedOn: Proteasome subunit beta (Trypanosoma cruzi) (UniProt O96673)
- Sequence (O96673 as listed by the source): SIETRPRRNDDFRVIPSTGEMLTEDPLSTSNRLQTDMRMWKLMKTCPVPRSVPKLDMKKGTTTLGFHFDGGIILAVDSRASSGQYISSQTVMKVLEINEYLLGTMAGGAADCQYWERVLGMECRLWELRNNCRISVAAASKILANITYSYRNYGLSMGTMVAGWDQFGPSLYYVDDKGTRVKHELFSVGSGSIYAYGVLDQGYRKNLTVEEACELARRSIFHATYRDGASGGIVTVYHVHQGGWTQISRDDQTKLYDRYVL
- protocolNotes: Trypanosoma cruzi proteasome chymotrypsin-like activity (TcProtChymo) assay.
- Format: functional
- Design: scale not given: in the data most compounds retested in dose-response had high values
- measurementParameters: 9.37 µM
Entries and their measured Percent Effect follow.
Express your answer in %, writing the number without its unit.

molecule=CN(Cc1ccco1)[C@@H]1CN(C(=O)c2ccnnc2)C[C@@H]2CCCO[C@@H]21 testedon="Proteasome subunit beta (Trypanosoma cruzi) (UniProt O96673)" measuredquantity="Percent Effect" valuemeasured=0.77
molecule=Fc1cccc(N2C[C@H]3CCN(c4cccnc4)C[C@H]3C2)c1 testedon="Proteasome subunit beta (Trypanosoma cruzi) (UniProt O96673)" measuredquantity="Percent Effect" valuemeasured=9.38
molecule="CSCC(=O)N1CCCC1c1noc(C2CC2)n1 (configuration not stated)" testedon="Proteasome subunit beta (Trypanosoma cruzi) (UniProt O96673)" measuredquantity="Percent Effect" valuemeasured=-1.92
molecule="O=C1OC2(CCN(C3CCCOC3)CC2)CN1CCc1ccccc1 (configuration not stated)" testedon="Proteasome subunit beta (Trypanosoma cruzi) (UniProt O96673)" measuredquantity="Percent Effect" valuemeasured=14
molecule="CCn1cnnc1CNC(=O)NC(C)c1cccs1 (configuration not stated)" testedon="Proteasome subunit beta (Trypanosoma cruzi) (UniProt O96673)" measuredquantity="Percent Effect" valuemeasured=3.38
molecule="Cc1nnc(CN2CCN(CC(O)c3cccc(F)c3)CC2)n1C (configuration not stated)" testedon="Proteasome subunit beta (Trypanosoma cruzi) (UniProt O96673)" measuredquantity="Percent Effect" valuemeasured=8.33
molecule="Cc1ccc(N2CCCC(NCc3ccsc3)C2)nn1 (configuration not stated)" testedon="Proteasome subunit beta (Trypanosoma cruzi) (UniProt O96673)" measuredquantity="Percent Effect" valuemeasured=8.29
molecule=Cc1cccnc1NC(=O)NCc1ccc(N2CCNC(=O)C2)cc1 testedon="Proteasome subunit beta (Trypanosoma cruzi) (UniProt O96673)" measuredquantity="Percent Effect" valuemeasured=8.78
molecule="O=C(NCCCO)C1CC(=O)N(c2n[nH]c3cccc(F)c23)C1 (configuration not stated)" testedon="Proteasome subunit beta (Trypanosoma cruzi) (UniProt O96673)" measuredquantity="Percent Effect" valuemeasured=10.5
molecule=O=C(C1CCCC1)N1CCN(Cc2nc(-c3ccco3)no2)CC1 testedon="Proteasome subunit beta (Trypanosoma cruzi) (UniProt O96673)" measuredquantity="Percent Effect" valuemeasured=3.23

input: Write down Percent Effect measured for item `Cc1nnc(NCc2cccnc2N(C)C)c(C#N)c1C`
output: -2.87

input: Specify reported Percent Effect for the molecule shown: `Cc1nc(N2CCOCC2)nc2c1CCN(Cc1cccnc1)CC2`
output: 3.08
